ASSAY TARGET: Tyrosine-protein kinase JAK2 (Homo sapiens)
Sequence (O60674 whole entry): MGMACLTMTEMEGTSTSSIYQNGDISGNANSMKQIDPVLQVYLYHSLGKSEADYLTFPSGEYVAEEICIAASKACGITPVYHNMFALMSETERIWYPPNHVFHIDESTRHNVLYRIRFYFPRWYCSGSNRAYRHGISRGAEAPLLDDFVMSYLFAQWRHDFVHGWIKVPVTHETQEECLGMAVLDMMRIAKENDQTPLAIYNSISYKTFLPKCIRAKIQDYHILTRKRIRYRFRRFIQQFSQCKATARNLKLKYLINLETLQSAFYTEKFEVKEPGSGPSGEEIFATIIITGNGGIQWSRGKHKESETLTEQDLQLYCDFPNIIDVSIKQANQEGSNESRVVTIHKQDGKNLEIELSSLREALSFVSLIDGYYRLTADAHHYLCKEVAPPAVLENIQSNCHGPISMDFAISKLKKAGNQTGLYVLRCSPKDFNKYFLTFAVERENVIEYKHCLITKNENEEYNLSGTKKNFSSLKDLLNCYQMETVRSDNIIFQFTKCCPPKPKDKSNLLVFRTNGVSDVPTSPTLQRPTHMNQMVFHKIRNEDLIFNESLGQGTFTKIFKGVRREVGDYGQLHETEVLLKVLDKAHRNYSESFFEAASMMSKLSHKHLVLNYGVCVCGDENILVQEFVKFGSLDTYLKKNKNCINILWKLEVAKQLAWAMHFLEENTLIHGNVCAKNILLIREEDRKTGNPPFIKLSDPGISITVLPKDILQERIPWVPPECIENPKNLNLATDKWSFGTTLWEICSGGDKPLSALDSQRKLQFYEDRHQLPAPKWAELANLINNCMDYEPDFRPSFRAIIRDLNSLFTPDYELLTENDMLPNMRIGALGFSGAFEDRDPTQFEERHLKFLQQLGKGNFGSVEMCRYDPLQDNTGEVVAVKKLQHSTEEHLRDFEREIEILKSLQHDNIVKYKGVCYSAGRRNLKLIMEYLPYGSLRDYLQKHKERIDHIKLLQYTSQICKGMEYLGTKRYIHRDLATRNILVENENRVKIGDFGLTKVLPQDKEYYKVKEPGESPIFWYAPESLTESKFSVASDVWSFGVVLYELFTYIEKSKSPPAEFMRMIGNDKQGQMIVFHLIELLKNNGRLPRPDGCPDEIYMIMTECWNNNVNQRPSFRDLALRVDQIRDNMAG
pIC50: −log10 of the molar value.

{"columns": ["STRUCTURE SMILES", "pIC50"],
 "data": [
  ["CCc1cc2c(cn1)CN(C1CCOCC1)c1nccc3[nH]nc-2c13", 5.77],
  ["Fc1ccc2c(c1)-c1n[nH]c3ccnc(c13)N(C1CCOCC1)C2", 6.05],
  ["CCn1ncc2c1CN(C1CCN(C(C)C)CC1)c1nccc3[nH]nc-2c13", 5.27],
  ["Cc1cc2c(cn1)CN(C1CCOCC1)c1nccc3[nH]nc-2c13", 6.05]
]}
